These data points were gathered from patent US20190062411A1.

- Target Desc: T1, biotinylated recombinant his-tagged MrkA, mixture of monomeric and oligomeric MrkA (Klebsiella pneumoniae, UniProt P12267 23-202, biotin-labeled (Pierce kit; sites not stated))
- T1 construct: also called biotinylated-MrkA; a mixture of monomeric and multimeric MrkA; not shown: his tag
- T1 chain: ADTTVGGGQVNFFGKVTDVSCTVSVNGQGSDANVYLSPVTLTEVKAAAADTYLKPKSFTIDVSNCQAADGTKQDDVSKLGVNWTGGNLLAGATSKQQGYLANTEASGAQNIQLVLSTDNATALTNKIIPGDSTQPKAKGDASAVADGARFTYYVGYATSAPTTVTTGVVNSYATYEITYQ
- Assay Details: ELISA, MrkA protein coated directly onto the plate, not biotinylated (title: anti-MrkA IgG binding to MrkA)
Quantity Name: EC50 (read off the curve)

// known answers, use as guide
* anti-MrkA clone 6 (IgG1) (antibody, V domains shown, also called St4_C6; IgG clone 6) VH: QVQLVQSGAEVRKPGASVTLSCRTSGYTFTSYAVHWVRQAPGQGLEWMGGVNGGNGNTRFSQKFQDRLMIVRDRSANTASMELRSLTSEDTAVYYCARADDCSGVGCHPWFDPWGQGTLVTVSS VL: SVILTQPPSVSVSPGQTANITCSGDKLGDKYTSWYLQKPGQSPVLLIFQDTKRPSDIPERFSGSNSGNTATLTISGTQAVDEADYYCQAWDSDSGTATFGGGTKLTVL | ~0.01 µg/mL
* anti-MrkA clone 4 (IgG1) (antibody, V domains shown, also called St2_C4; IgG clone 4) VH: QLQLQESGPGLVKPSGTLSLTCAVSGDSIDNANWWSWVRQTPGKGLEWIGEIYHSGTTYYNPSLKSRVTISIDNSKNQFSLALTSVTAADTAVYYCARDRDITSRGTFDVWGRGTMVTVSS VL: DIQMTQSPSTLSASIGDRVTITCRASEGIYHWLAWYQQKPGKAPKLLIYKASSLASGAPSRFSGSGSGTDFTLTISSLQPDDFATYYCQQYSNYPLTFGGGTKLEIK | ~0.01 µg/mL

Prompt: I have this binder here, anti-MrkA clone 1 (IgG1) (antibody, V domains shown, also called St1_C1; IgG clone 1) VH: QVQLVQSGAEVRKPGASVTVFCRTSGYIFTSYAVHWVRQAPGQGLEWMGGINGGNGNTRISQRFQDRLMITRDRSANTASMELRSLTSEDTAIYYCARADDCSGVGCHPWFDPWGRGTLVTVSS VL: QSVLTQPPSVSVSPGHTASITCSGDKLGDKYVSWYQQKSGQSPVLVMYKDTKRPSGIPERFSGSNSGNTATLAISGTQAVDEADYFCQAWDRSIMIFGGGTKVTVL , and I need its recorded EC50 (read off the curve).
Completion: ~0.01 µg/mL
